Reference for the values: ChEMBL document CHEMBL1138056

assay.system: Tyrosine-protein phosphatase non-receptor type 1 (Homo sapiens) (UniProt P18031)
Sequence (whole entry): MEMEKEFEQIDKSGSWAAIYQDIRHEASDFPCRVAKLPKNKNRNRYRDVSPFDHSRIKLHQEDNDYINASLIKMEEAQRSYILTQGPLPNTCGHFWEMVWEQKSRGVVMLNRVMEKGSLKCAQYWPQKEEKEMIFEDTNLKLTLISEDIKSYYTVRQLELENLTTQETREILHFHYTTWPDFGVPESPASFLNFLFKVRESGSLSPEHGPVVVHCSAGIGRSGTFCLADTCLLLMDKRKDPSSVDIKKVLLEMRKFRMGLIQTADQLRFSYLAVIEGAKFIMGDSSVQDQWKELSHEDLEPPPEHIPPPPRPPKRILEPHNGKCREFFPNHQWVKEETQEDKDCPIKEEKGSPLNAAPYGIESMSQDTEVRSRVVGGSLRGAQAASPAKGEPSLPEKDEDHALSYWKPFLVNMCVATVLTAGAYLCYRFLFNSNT
assay.comment: Increase in phosphorylation level of human insulin receptor transfected in HEK293 cells at 80 uM
Format: functional, cell-based
measure.name: Activity
// print number alone

Worked set:
compound | assay.system | measure.name | value.observed
Cc1cc(C[C@H](NS(=O)(=O)c2ccccc2)c2nc3ccccc3[nH]2)ccc1[C@H]1CC(=O)NS1(=O)=O | Tyrosine-protein phosphatase non-receptor type 1 (Homo sapiens) (UniProt P18031) | Activity | 1
O=C1C[C@@H](c2ccc(C[C@H](NS(=O)(=O)c3ccccc3)c3nc4ccccc4[nH]3)cc2Cl)S(=O)(=O)[N-]1.[Na+] | Tyrosine-protein phosphatase non-receptor type 1 (Homo sapiens) (UniProt P18031) | Activity | 1
O=C1CC(c2ccc(C[C@H](NS(=O)(=O)c3cccc(C(F)(F)F)c3)c3nc4cc(Cl)ccc4[nH]3)cc2F)S(=O)(=O)[N-]1.[Na+] (some centres undefined) | Tyrosine-protein phosphatase non-receptor type 1 (Homo sapiens) (UniProt P18031) | Activity | 2.3

Please examine the following record next.
// recorded Activity for O=C1C[C@@H](c2ccc(C[C@H](NS(=O)(=O)c3cccc(F)c3)c3nc4ccccc4[nH]3)cc2F)S(=O)(=O)[N-]1.[Na+] : 1.1

* * *

assay.comment: Permeability across Caco-2 cell membrane
Assay type: ADME, cell-based
condition.summary: human, read-out: permeability
measure.name: Papp

compound | Papp
O=C1CC(c2ccc(C[C@H](NS(=O)(=O)c3ccccc3)c3nc4ccccc4[nH]3)cc2F)S(=O)(=O)[N-]1.[Na+] (some centres undefined) | 0.2 ×10⁻⁶ cm/s
Cc1cc(C[C@H](NS(=O)(=O)c2cccc(Cl)c2)c2nc3ccccc3[nH]2)ccc1[C@@H]1CC(=O)[N-]S1(=O)=O.[Na+] | 0.2 ×10⁻⁶ cm/s
Cc1cc(C[C@H](NS(=O)(=O)c2ccccc2)c2nc3ccccc3[nH]2)ccc1[C@@H]1CC(=O)[N-]S1(=O)=O.[Na+] | 0.4 ×10⁻⁶ cm/s

// recorded Papp for Cc1cc(C[C@H](NS(=O)(=O)c2ccc(Br)c(C(F)(F)F)c2)c2nc3ccccc3[nH]2)ccc1[C@@H]1CC(=O)[N-]S1(=O)=O.[Na+] : < 0.1 ×10⁻⁶ cm/s

* * *

assay.system: Tyrosine-protein phosphatase non-receptor type 1 (Homo sapiens) (UniProt P18031)
assay.comment: Increase in phosphorylation level of human insulin receptor transfected in HEK293 cells at 80 uM
Assay type: functional, cell-based
measure.name: Activity
// print number alone

Worked set:
compound | measure.name | value.observed
Cc1cc(C[C@H](NS(=O)(=O)c2ccc(Br)c(C(F)(F)F)c2)c2nc3ccccc3[nH]2)ccc1[C@@H]1CC(=O)[N-]S1(=O)=O.[Na+] | Activity | 2
O=C1C[C@@H](c2ccc(C[C@H](NS(=O)(=O)c3ccccc3)c3nc4ccccc4[nH]3)cc2)S(=O)(=O)[N-]1.[Na+] | Activity | 1
O=C1CC(c2ccc(C[C@H](NS(=O)(=O)c3ccccc3)c3nc4ccccc4[nH]3)cc2Br)S(=O)(=O)[N-]1.[Na+] (some centres not stated) | Activity | 0.7
Cc1cc(C[C@H](NS(=O)(=O)c2ccccc2C#N)c2nc3ccccc3[nH]2)ccc1[C@@H]1CC(=O)[N-]S1(=O)=O.[Na+] | Activity | 1.4
Cc1cc(C[C@H](NS(=O)(=O)c2ccccc2)c2nc3ccccc3[nH]2)ccc1[C@@H]1CC(=O)[N-]S1(=O)=O.[Na+] | Activity | 2.8
O=C1CC(c2ccc(C[C@H](NS(=O)(=O)c3ccccc3)c3nc4ccccc4[nH]3)cc2F)S(=O)(=O)[N-]1.[Na+] (some centres not stated) | Activity | 1.6

Please examine the following record next.
// recorded Activity for Cc1cc(C[C@H](NS(=O)(=O)c2cccc(Cl)c2)c2nc3ccccc3[nH]2)ccc1[C@@H]1CC(=O)[N-]S1(=O)=O.[Na+] : 1.9
